Reported Binding Inhibition (%) values follow for various binders
# system.tested: T1, gH/gL/UL128/UL130/UL131A pentamer complex expressed from MVA-PC in BHK-21 cells (human cytomegalovirus, UniProt P12824 24-743; P16832 31-278; P16837 28-171; P16772 1-214; F5HET4 19-129)
# T1 construct: whole, on cells
# experimental.details: FC competition, MVA-PC BHK-21; unlabelled row Ab; competitor: biotinylated 21E9; note: test concentration or dose not given here

binder	Binding Inhibition (%)
62-11 (antibody, V domains shown, also called NAb 62-11) VH: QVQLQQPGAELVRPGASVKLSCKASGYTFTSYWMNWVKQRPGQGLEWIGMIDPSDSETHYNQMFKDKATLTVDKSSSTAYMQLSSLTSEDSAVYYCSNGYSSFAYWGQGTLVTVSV VL: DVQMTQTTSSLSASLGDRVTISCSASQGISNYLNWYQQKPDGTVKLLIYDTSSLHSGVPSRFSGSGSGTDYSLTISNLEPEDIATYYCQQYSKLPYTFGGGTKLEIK	46
21E9 (antibody, V domains shown, also called NAb 21E9) VH: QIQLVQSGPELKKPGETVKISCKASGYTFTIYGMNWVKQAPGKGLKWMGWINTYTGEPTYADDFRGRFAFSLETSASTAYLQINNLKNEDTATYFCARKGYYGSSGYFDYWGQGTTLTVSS VL: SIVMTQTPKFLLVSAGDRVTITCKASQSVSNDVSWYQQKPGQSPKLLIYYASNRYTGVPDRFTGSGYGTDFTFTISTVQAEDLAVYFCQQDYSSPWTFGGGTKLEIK	100
2-80 (antibody, V domains shown, also called NAb 2-80) VH: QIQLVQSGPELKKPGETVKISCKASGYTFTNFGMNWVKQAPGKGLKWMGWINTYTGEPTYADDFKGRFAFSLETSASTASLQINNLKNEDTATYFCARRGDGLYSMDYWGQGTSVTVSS VL: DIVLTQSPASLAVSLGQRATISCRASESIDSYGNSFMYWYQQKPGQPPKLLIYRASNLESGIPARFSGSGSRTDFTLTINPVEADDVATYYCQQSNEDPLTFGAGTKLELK	100
62-100 (antibody, V domains shown, also called NAb 62-100) VH: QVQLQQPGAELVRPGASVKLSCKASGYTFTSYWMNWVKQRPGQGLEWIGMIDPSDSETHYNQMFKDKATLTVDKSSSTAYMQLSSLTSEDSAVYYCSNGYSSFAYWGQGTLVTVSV VL: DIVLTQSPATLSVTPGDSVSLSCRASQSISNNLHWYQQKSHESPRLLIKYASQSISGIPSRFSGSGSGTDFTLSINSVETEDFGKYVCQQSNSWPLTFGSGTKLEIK	51
18F10 (antibody, V domains shown, also called NAb 18F10) VH: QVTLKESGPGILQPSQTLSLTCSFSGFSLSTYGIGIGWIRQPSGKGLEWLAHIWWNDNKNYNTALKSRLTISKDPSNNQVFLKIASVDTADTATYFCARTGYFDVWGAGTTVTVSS VL: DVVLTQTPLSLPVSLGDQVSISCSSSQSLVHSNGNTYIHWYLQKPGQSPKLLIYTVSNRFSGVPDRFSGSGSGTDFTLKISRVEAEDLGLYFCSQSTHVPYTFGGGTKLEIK	0
